# TEST_SYSTEM: T1, human CD20 antigen (human, UniProt P11836 1-297)
# T1 construct: whole, on cells; also called human CD20 molecule
# T1 sequence (looked up): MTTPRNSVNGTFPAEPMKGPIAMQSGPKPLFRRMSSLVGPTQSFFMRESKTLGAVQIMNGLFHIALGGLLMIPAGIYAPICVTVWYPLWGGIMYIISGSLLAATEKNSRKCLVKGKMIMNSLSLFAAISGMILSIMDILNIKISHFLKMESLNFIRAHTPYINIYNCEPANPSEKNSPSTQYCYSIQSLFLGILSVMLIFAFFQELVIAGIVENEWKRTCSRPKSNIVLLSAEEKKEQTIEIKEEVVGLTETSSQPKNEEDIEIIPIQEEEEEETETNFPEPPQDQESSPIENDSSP
# EXPERIMENTAL_DETAILS: Scatchard analysis on Raji cells, FITC-labeled Protein A detection
OBSERVABLE: pKd
Please express pKd as -log10 of the molar concentration.

For this binder ( humanized antibody 1782 clone fv (antibody, V domains shown, kg1 constructs; also called h1782fv; hz1782-fv02) VH: QVQLVQSGAELKKPGASVKVSCKASGYTFTSYWMHWVKQAPGQGLEWIGYITPSTGYTDYNKKFKDKATLTADRSSSTAYMELSSLRSEDTAVYYCARSGPYFDVWGAGTTVTVSS VL: DILLTQSPATLSVSPGERATLSCRASQNIGTSIHWYQQRPGQSPRLLIKYASESFSGIPSRFSGSGSGTDFTLTINSLQPEDIADYYCQQSNSWPFTFGSGTKLEIK ), measured pKd is 8.17

For this binder ( humanized antibody 1782 clone sf (antibody, V domains shown, kg1 constructs; also called h1782sf; hz1782-sf23) VH: QVQLVQSGAEVKKPGASVKVSCKASGYTFTSYWMHWVKQAPGQGLEWIGYITPSTGYTDYNKKFKDKATLTADRSSSTAYMELSSLRSEDTAVYYCARSGPYFDVWGAGTTVTVSS VL: DILLTQSPATLSLSPGERATLSCRASQNVGTSLHWYQQKPGQSPRLLIKYASERFTGIPSRFSGSGSGTDFTLTISSLEPEDFADYYCQQSNSWPFTFGSGTKLEIK ), measured pKd is 8.13

For this binder ( humanized antibody 1782 clone ff (antibody, V domains shown, kg1 constructs (C kappa / C gamma1 vector); also called h1782ff; hz1782-ff14) VH: QVQLVQSGAEVKKPGASVKVSCKASGYTFTSYWMHWVKQAPGQGLEWIGYITPSTGYTDYNKKFKDKATLTADRSSSTAYMELSSLRSEDTAVYYCARSGPYFDVWGAGTTVTVSS VL: DILLTQSPATLSVSPGERATLSCRASQNIGTSIHWYQQRPGQSPRLLIKYASESFSGIPSRFSGSGSGTDFTLTINSLQPEDIADYYCQQSNSWPFTFGSGTKLEIK ), measured pKd is 8.36

For this binder ( humanized antibody 1782 clone ss (antibody, V domains shown, kg1 constructs; also called h1782ss; hz1782-ss21) VH: QVQLVQSGAEVKKPGASVKVSCKASGYTFTSYWMHWVKQAPGQGLEWIGYITPSTGYTDYNQKFQGKATLTADRSSSTAYMELSSLRSEDTAVYYCARSGPYFDVWGAGTTVTVSS VL: DILLTQSPATLSLSPGERATLSCRASQNVGTSLHWYQQKPGQSPRLLIKYASERFTGIPSRFSGSGSGTDFTLTISSLEPEDFADYYCQQSNSWPFTFGSGTKLEIK ), measured pKd is 8.06
